B1: minF1; the commonest letter at each place (parent)
chain: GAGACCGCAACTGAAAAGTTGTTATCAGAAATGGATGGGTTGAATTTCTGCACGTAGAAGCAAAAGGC

- Variants of: B1
- test-description: fraction ligated after 30 min (ligated reads / total reads); higher = more ligase activity
- applied-conditions: with F1*subA RNA substrate (template-directed ligation), 42 °C
Rule: fraction ligated under 0.07 gives No, otherwise Yes.

Look over these answered cases.
[
  {
    "variant-id": "G33C G37C",
    "label": "No"
  },
  {
    "variant-id": "G33C A43T",
    "label": "No"
  },
  {
    "variant-id": "A24G T25C",
    "label": "No"
  },
  {
    "variant-id": "A27C A29T",
    "label": "Yes"
  },
  {
    "variant-id": "A24T T36A",
    "label": "No"
  },
  {
    "variant-id": "T23G G34T",
    "label": "No"
  }
]

Request: Please check the record T23C C26A and state if its fraction ligated is at or above 0.07.
Result: No

Request: Please check the record A31T A35C and state if its fraction ligated is at or above 0.07.
Result: No

Request: Please check the record T23A T25C and state if its fraction ligated is at or above 0.07.
Result: No

Request: Please check the record A24T C26G and state if its fraction ligated is at or above 0.07.
Result: No

Request: Please check the record A27C A29G and state if its fraction ligated is at or above 0.07.
Result: Yes

Request: Please check the record T23A G42A and state if its fraction ligated is at or above 0.07.
Result: No

Request: Please check the record G37C A43G and state if its fraction ligated is at or above 0.07.
Result: No

Request: Please check the record A30T A31C and state if its fraction ligated is at or above 0.07.
Result: Yes

Request: Please check the record A24T A44G and state if its fraction ligated is at or above 0.07.
Result: No

Request: Please check the record T25G T32C and state if its fraction ligated is at or above 0.07.
Result: No

Request: Please check the record A29C A35T and state if its fraction ligated is at or above 0.07.
Result: No

Request: Please check the record A27T T36G and state if its fraction ligated is at or above 0.07.
Result: Yes

Request: Please check the record G34T A43G and state if its fraction ligated is at or above 0.07.
Result: No

Request: Please check the record C26T A29G and state if its fraction ligated is at or above 0.07.
Result: Yes

Request: Please check the record T25G G34A and state if its fraction ligated is at or above 0.07.
Result: No

Request: Please check the record T23C A44C and state if its fraction ligated is at or above 0.07.
Result: No
